List of IC50 values.
Test system: NCIH727
EXPERIMENTAL DETAILS: CellTiter-Glo Reagent cancer cell line proliferation assay, NCIH727
Type: cell-based, human
ASSAY SETUP: Homo sapiens, NCI-H727, 24 h, NCIH727, KRAS(G12V) heterozygous

[
  {
    "MOLECULE": "C#Cc1c(F)ccc2cc(O)cc(-c3ncc4c(N5CC6CCC(C5)N6C(=O)NC(C)(C)C)nc(OCC5(CN6CCN(CC7CCN(c8ccc9c(c8)CN(C8CCC(=O)NC8=O)C9=O)CC7)CC6)CC5)nc4c3F)c12 (stereo not shown)",
    "EXPERIMENTAL TARGET": "NCIH727",
    "RESULT": "> 1000 nM"
  },
  {
    "MOLECULE": "C#Cc1c(F)ccc2cc(O)cc(-c3nc(OC)c4c(N5CCN(C(=O)CC#N)[C@@H](CC#N)C5)nc(OCC5(CN6CCN(CC7CCN(c8ccc9c(c8)CN(C8CCC(=O)NC8=O)C9=O)CC7)CC6)CC5)nc4c3F)c12 (stereo partly shown)",
    "EXPERIMENTAL TARGET": "NCIH727",
    "RESULT": "> 1000 nM"
  },
  {
    "MOLECULE": "C#Cc1c(F)ccc2cc(O)cc(-c3nc(OC)c4c(N5CC6CCC(C5)N6C(=O)CC#N)nc(OCC5(CN6CCN(CC7CCN(c8ccc9c(c8)CN(C8CCC(=O)NC8=O)C9=O)CC7)CC6)CC5)nc4c3F)c12 (stereo not shown)",
    "EXPERIMENTAL TARGET": "NCIH727",
    "RESULT": "100 to 1000 nM"
  }
]

In: # return IC50 for C#Cc1c(F)ccc2cc(O)cc(-c3nc(OC)c4c(N5CC6CCC(C5)N6C(=O)NCC#N)nc(OCC5(CN6CCN(CC7CCN(c8ccc9c(c8)CN(C8CCC(=O)NC8=O)C9=O)CC7)CC6)CC5)nc4c3F)c12 (stereo not shown) , test system: NCIH727
Out: 100 to 1000 nM
